# test_protocol: chemical genetic growth profiling, strain panel (AID 1159580);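 note: tested at 20 µM; growth read once vehicle control cultures reached saturation at 30 °C; 1 = growth at the plate median or of vehicle wells; lower values mean less growth of the strain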
# test_conditions: S. cerevisiae deletion strains, growth OD, locus YDL005C, strain med2, stronger effect = lower value
In all, about 5,500 compounds went through this assay and about 2,000 (36%) were called active. Roughly 18% stayed inconclusive and do not appear here. Some of the results follow.
measured_attribute: normalized growth

molecule	measured_attribute	observed_measurement
CO[C@H]1[C@H](O)[C@H](O[C@H]2CC[C@]3(C)C4CC[C@]5(C)C(C6=CC(=O)OC6)CC[C@]5(O)C4CC[C@@H]3C2)O[C@@H](C)[C@@H]1O (stereo not given in full)	normalized growth	0.994
CN1CCC(=C2c3ccccc3CCc3sccc32)CC1	normalized growth	0.968
CC(C(=O)O)c1cccc(C(=O)c2ccccc2)c1 (stereo not given)	normalized growth	0.98
NCCSSCCN	normalized growth	0.988
COc1cc(O)c(C(=O)/C=C/c2ccc(OC)c(O)c2)c(OC)c1	normalized growth	1.01
CN1CCC(=C2c3ccccc3CC(=O)c3sccc32)CC1	normalized growth	0.991
COc1ccc(OC)c(C(O)C(C)N)c1 (stereo not given)	normalized growth	0.994
COc1ccc2cc([C@H](C)CO)ccc2c1	normalized growth	1.02
CN1CCCN=C1COC(=O)C(O)(c1ccccc1)C1CCCCC1 (stereo not given)	normalized growth	0.98
COc1ccc2c3c1O[C@H]1C[C@@H](O)C=C[C@@]31CCN(C)C2	normalized growth	0.995

====

# test_protocol: chemical genetic growth profiling, strain panel (AID 1159580);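 note: tested at 20 µM; growth read once vehicle control cultures reached saturation at 30 °C; 1 = growth at the plate median or of vehicle wells; lower values mean less growth of the strain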
# test_conditions: S. cerevisiae deletion strains, growth OD, locus YKL068W, stronger effect = lower value
In all, about 5,500 compounds went through this assay and about 2,000 (36%) were called active. Inconclusive results (about 18%) are left out. The list shows a part of the results.
Binarize normalized growth at 1; below is condition met, at or above is condition not met.

compound	cat
COc1cc(O)c(C(=O)/C=C/c2ccccc2)c(OC)c1	condition met
COc1ccc2c(C)cc(=O)oc2c1	condition not met
CCCCCCCCCCCCCCCC[N+](C)(C)C	condition met
CC(=O)OCC(=O)[C@H]1CCC2C3CCC4=CC(=O)CC[C@]4(C)C3CC[C@@]21C (some centres undefined)	condition met
C=C1C([C@]2(C)C(CC(=O)OC)[C@@](C)(COC(C)=O)OC(=O)C[C@@H]2OC(C)=O)[C@@H](OC=O)[C@H](OC(=O)C(OC(C)=O)C(C)CC)[C@@]2(C)[C@H](c3ccoc3)CC(=O)C12O (some centres undefined)	condition not met

====

# test_protocol: chemical genetic growth profiling, strain panel (AID 1159580);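 note: tested at 20 µM; growth read once vehicle control cultures reached saturation at 30 °C; 1 = growth at the plate median or of vehicle wells; lower values mean less growth of the strain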
# test_conditions: S. cerevisiae deletion strains, growth OD, locus YER002W, strain NOP16, stronger effect = lower value
The whole screen tested about 5,500 compounds, of which about 2,000 (36%) were called active. Not shown: some 18% with an inconclusive outcome. The list shows a part of the results.
Below is a list of entries, each paired with its recorded normalized growth value.
measured_attribute: normalized growth

> print(dat)
                                   compound  observed.measurement
1  C[C@]12C[C@H](O)[C@H]3[C@@H](CCC4=CC(=O)CC[C@@]43C)[C@@H]1CC[C@@H]2C(=O)CO                  1.01
2  CNCC(O)c1ccc(O)c(O)c1 (stereo unspecified)                     1
3  OC[C@H]1O[C@@H](n2cnc3c(Nc4ccccc4)ncnc32)C(O)[C@H]1O (stereo partly specified)                 0.977
4  C[C@H]1O[C@@H](n2cc(F)c(=O)[nH]c2=O)[C@H](O)[C@@H]1O                  1.04
5      OCc1ccc(-c2nn(Cc3ccccc3)c3ccccc23)o1                 0.988
6  O=C(O)C1C2CCC(O2)C1C(=O)O (stereo unspecified)                 0.996

Origin of the recorded values: PubChem BioAssay AID1159580
